B1: TMEM106C (parent)
chain: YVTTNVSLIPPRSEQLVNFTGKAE

variants of: B1; assay: protein stability index of a GFP-peptide fusion (GPS, HEK-293T) (PSI 1-6); higher = more stable; details: c terminus: a fixed tail appended;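 note: lentivirally expressed fusions sorted by FACS into six bins by GFP to DsRed ratio, PSI derived from sequencing read proportions per bin multiplied by bin number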
readout.label: protein stability index
Answers are plain numbers.

K22D: 2.08
Y1C: 2.4
T3M: 1.46
V2A: 2.81

# map each variant to its protein stability index
1. Y1S
2. Q15K
3. V2D
4. A23Q
5. Q15P
6. E14G
7. I9V

1. 3.24
2. 1.43
3. 4.58
4. 1.74
5. 2.28
6. 1.59
7. 1.51

# map each variant to its protein stability index
1. V6T
2. E14W
3. E24A
4. N5Q
5. T4A
6. T4I
7. I9C
8. N18G

2.02
2
2
2.71
1.71
1.75
1.2
1.7

# map each variant to its protein stability index
1. T20V
2. Y1I
3. V17M
4. T4H
5. V6P
6. S13T

[1.84, 2.46, 2.04, 2.07, 2, 1.74]

# map each variant to its protein stability index
1. K22S
2. Y1M

[1.72, 3.08]

# map each variant to its protein stability index
1. L8K
2. T3Y
3. T3I
4. A23L
5. G21E
6. S7N
7. T4Y

1.71
2.45
2.12
1.31
2.49
2.18
2.24

# map each variant to its protein stability index
1. V6G
2. Y1R
3. S13Q
4. G21S
5. E24I

[1.77, 3.44, 1.72, 1.6, 2.32]

# map each variant to its protein stability index
1. T3H
2. R12D
3. T3C
4. V2M
5. V17L
6. F19D
7. R12K
8. N18V

1.98
1.92
2.3
3.03
2.3
2.01
1.9
1.81

# map each variant to its protein stability index
1. Y1A
2. I9G
3. V17I
4. K22A
5. K22R

1: 3.53; 2: 1.6; 3: 2.24; 4: 2.23; 5: 1.8
